- ASSAY_INFO: proliferation blockers of H69AR lung cancer cells, primary screen, cell-based, human, 86K library (AID 598);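 further: multidrug resistant small cell line overexpressing MRP-1 efflux transporter; 100% = mean luminescence of untreated control wells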
- APPLIED_CONDITIONS: H69AR lung tumor viability, ATP luminescence, 72 h; at 10 µM; active compounds read low
In all, about 85,000 compounds went through this assay and about 5,100 (6%) were called active. This excerpt belongs to a sample that is enriched for actives.
viability overview
Give the value, in units of %, as a plain number.

Solved cases below.
COCCOC(=O)C1=C(C)NC(=O)CC1c1cc2c(cc1Br)OCO2 (stereo not given) = 97.1
Nc1ccc(C(=O)OCC(=O)NC2CCCc3ccccc32)cc1[N+](=O)[O-] (stereo not given) = 63.4
CN1C(=O)C(CC(N)=O)N(NC(=O)c2ccc(Cl)cc2)C1=S (stereo not given) = 98
CCCCc1nc2ccccc2c(=O)n1NC(=O)c1c(O)c2cccc3c2n(c1=O)CC3 = 70.7
COc1ccc(-c2cn(-c3ccc(C)cc3)c(=O)n2CC(=O)Nc2ccc(OC)c(OC)c2)cc1 = 76.5
CCCc1nc2ccccc2c(=O)n1NC(=O)c1c(O)c2ccccc2[nH]c1=O = 86.6
Cc1cc(N/C=C\C(=O)c2ccc(Cl)c(Cl)c2)no1 = 84.8
O=C(NCc1ccco1)c1ccc(Cn2c(=O)c3sccc3n(Cc3ccc(F)cc3)c2=O)cc1 = 82.3

QUERY: Indicate its recorded viability; the compound in question is "Cc1ccc(Cc2c(C)nc3nc(SCC(=O)NCCN4CCOCC4)nn3c2C)cc1"
RESULT: 93.9

QUERY: Indicate its recorded viability; the compound in question is "Cc1ccc(-n2nc3cc(C)c(NC(=O)c4cccnc4)cc3n2)cc1"
RESULT: 82

----------
- ASSAY_INFO: proliferation blockers of H69AR lung cancer cells, primary screen, cell-based, human, 86K library (AID 598)
- APPLIED_CONDITIONS: H69AR lung tumor viability, ATP luminescence, 72 h; at 10 µM; active compounds read low
The campaign covered roughly 85,000 compounds. About 5,100 (6%) were called active. The entries come from a sample that favours actives as a whole.
viability overview
Give the value, in units of %, as a plain number.

COc1ccccc1Nc1nc(N)nc(CN(C)C2CCCCC2)n1 = 87.4
O=C(O)c1ccc(COCC(F)(F)F)cc1 = 98.2
O=C(NC1CCCCC1)n1c(=O)oc2cc(S(=O)(=O)N3CCCCC3)ccc21 = 60.7

Now let's try a different one.
QUERY: Indicate its recorded viability; the molecule in question is "CCn1c(=O)c(=O)n(CC)c2cc(S(=O)(=O)N3CCc4ccccc43)ccc21"
RESULT: 27.2

----------
- ASSAY_INFO: proliferation blockers of H69AR lung cancer cells, primary screen, cell-based, human, 86K library (AID 598)
- APPLIED_CONDITIONS: H69AR lung tumor viability, ATP luminescence, 72 h; at 10 µM
Screen size: about 85,000 compounds; about 5,100 (6%) were called active.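 Rule for the calls: active = viability at or below 40%; inactive = viability above 40%.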 The sample holds actives, similar compounds and a random draw of the others, so the mix is not that of the screen.
One label from this list, please: active, inactive

CCOC(=O)C1CCN(C(=O)COc2cc(C)c(Br)c(C)c2)CC1 = active

QUERY: What classification did O=C(CC(NCCN1CCOCC1)C(=O)O)Nc1cccc(Cl)c1 (stereo unspecified) end up with in this test?
RESULT: inactive

----------
- ASSAY_INFO: proliferation blockers of H69AR lung cancer cells, primary screen, cell-based, human, 86K library (AID 598)
- APPLIED_CONDITIONS: H69AR lung tumor viability, ATP luminescence, 72 h; at 10 µM; active compounds read low
Out of some 85,000 compounds screened, about 5,100 (6%) were called active. This is one part of a sample in which actives are shown more often than they occur.
ASSAY_METRIC: viability (%)
Give the value, in units of %, as a plain number.

Solved cases below.
O=C(Nc1cccc(NC(=O)c2ccco2)c1)c1cnccn1 = 87.2
CC/C(O)=N\S(=O)(=O)c1ccc(N=NN(C)C)cc1 = 85.7
COc1ccc(C2(CNC(=O)C(c3ccccc3)c3ccccc3)CCOCC2)cc1OC = 74.8

QUERY: Indicate its recorded viability; the compound in question is CCOC(=O)c1ccc(N2C(=O)CC(N(C)Cc3ccccc3)C2=O)cc1 (stereo unspecified)
RESULT: 93.7

QUERY: Indicate its recorded viability; the compound in question is "COc1ccccc1N1CCN(C(=O)c2cn(-c3ccccc3)nc2-c2cccnc2)CC1"
RESULT: 21.9

QUERY: Indicate its recorded viability; the compound in question is "COn1c(=O)c(=O)n(OC)c2ccccc21"
RESULT: 97.1

QUERY: Indicate its recorded viability; the compound in question is "C=CCN(C(=O)Nc1ccc2oc(C)nc2c1)c1ccccc1"
RESULT: 78.7

QUERY: Indicate its recorded viability; the compound in question is "COc1cccc2sc(Nc3nc(C)c(C(C)=O)s3)nc12"
RESULT: 32.5

QUERY: Indicate its recorded viability; the compound in question is "Cc1cc(C)c2c(n1)nn1c(N3CCN(c4cccc(Cl)c4)CC3)cc(C)nc21"
RESULT: 17.6

QUERY: Indicate its recorded viability; the compound in question is "CCOC(=O)N1CCN(S(=O)(=O)c2ccc(C(=O)Nc3ccc(F)cc3F)cc2)CC1"
RESULT: 20.4

QUERY: Indicate its recorded viability; the compound in question is C#CCN1C(=O)C(O)(CC(=O)c2cc(OC)ccc2OC)c2ccccc21 (stereo unspecified)
RESULT: 17.6

QUERY: Indicate its recorded viability; the compound in question is "CCSc1nc(-c2ccc(OC)cc2)cc(-c2ccc(OC)cc2)c1C#N"
RESULT: 88

QUERY: Indicate its recorded viability; the compound in question is "COC(=O)c1sc(NC(=O)c2ccc(OC)cc2OC)nc1C"
RESULT: 69.8

QUERY: Indicate its recorded viability; the compound in question is "Cc1cc(C)c2c(n1)nn1c(-n3ccnc3)cc(C)nc21"
RESULT: 74.5

----------
- ASSAY_INFO: proliferation blockers of H69AR lung cancer cells, primary screen, cell-based, human, 86K library (AID 598);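 further: multidrug resistant small cell line overexpressing MRP-1 efflux transporter; 100% = mean luminescence of untreated control wells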
- APPLIED_CONDITIONS: H69AR lung tumor viability, ATP luminescence, 72 h; at 10 µM; active compounds read low
Hit rate of the full screen: of about 85,000 compounds, about 5,100 (6%) were called active. Only a selection was taken, and actives are over-represented in it overall.
Entries are grouped by viability into these classes: lower band = under 70%, central band = from 70% up to 90%, upper band = 90% and over

Solved cases (2 shown):
CCOC(=O)C1CCN(C(c2cc3cc(C)cc(C)c3[nH]c2=O)c2nnnn2C2CCCCC2)CC1 (stereo not drawn) = lower band
O=C(CCS(=O)(=O)c1ccccc1)Nc1nc2c(s1)CCCC2 = lower band

QUERY: Class? Entry: "Cc1nnc(OCC(=O)NCCC2=CCCCC2)c2ccccc12"
RESULT: upper band

QUERY: Class? Entry: "COC(=O)c1ccc(N(CC(=O)NC2CCCC2)C(=O)CNC(=O)c2ccco2)cc1"
RESULT: upper band

QUERY: Class? Entry: CCC1CCCCN1CCCNC(=O)C1CCC(Cn2c(=O)[nH]c3ccccc3c2=O)CC1 (stereo not drawn)
RESULT: central band

----------
- ASSAY_INFO: proliferation blockers of H69AR lung cancer cells, primary screen, cell-based, human, 86K library (AID 598);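 further: multidrug resistant small cell line overexpressing MRP-1 efflux transporter; 100% = mean luminescence of untreated control wells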
- APPLIED_CONDITIONS: H69AR lung tumor viability, ATP luminescence, 72 h; at 10 µM; active compounds read low
Out of some 85,000 compounds screened, about 5,100 (6%) were called active. Shown is part of a subset that was picked to be rich in actives.
viability strictly less than 80% = Met. Otherwise Not met.

Solved cases (3 shown):
COCCn1c(SCc2nnc(-c3ccc(OC)c(OC)c3)o2)nc2sc3c(c2c1=O)CCC3 = Met
CCOc1ccc2nc(NC(=O)CSc3nc4c(c(=O)n(C)c(=O)n4C)n3CC)sc2c1 = Met
CCCCn1c(SCC(=O)NCCc2ccc(OC)c(OC)c2)nc2c1c(=O)n(C)c(=O)n2C = Not met

Lab note: next molecule to report on.
QUERY: Is 80% strictly greater than the molecule's reported viability? molecule: "COc1ccc(C(=O)NC(=O)CSc2nnc(-c3ccco3)n2-c2ccccc2)cc1"
RESULT: Not met

----------
- ASSAY_INFO: proliferation blockers of H69AR lung cancer cells, primary screen, cell-based, human, 86K library (AID 598);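 further: multidrug resistant small cell line overexpressing MRP-1 efflux transporter; 100% = mean luminescence of untreated control wells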
- APPLIED_CONDITIONS: H69AR lung tumor viability, ATP luminescence, 72 h; at 10 µM; active compounds read low
The campaign covered roughly 85,000 compounds. About 5,100 (6%) were called active. This is one part of a sample in which actives are shown more often than they occur.
viability overview

COC(=O)C1=C(C)N=C2SC(C)C(=O)N2C1/C=C/c1ccccc1 (configuration not stated) = 85.8% (inactive)

QUERY: Indicate its recorded viability; the compound in question is "Cc1ccccc1-c1nnc(SCC(=O)NCc2ccc3c(c2)OCO3)n1C"
RESULT: 91.1% (inactive)

QUERY: Indicate its recorded viability; the compound in question is "CCCCOc1ccc(Cl)cc1CSc1nncn1N"
RESULT: 94% (inactive)

QUERY: Indicate its recorded viability; the compound in question is "CCc1c(-c2ccccc2)nc(N)c(C#N)c1-c1cccs1"
RESULT: 36% (active)
